Biological target: Glutamate carboxypeptidase 2 (Homo sapiens, UniProt Q04609)
Sequence (Q04609 whole entry): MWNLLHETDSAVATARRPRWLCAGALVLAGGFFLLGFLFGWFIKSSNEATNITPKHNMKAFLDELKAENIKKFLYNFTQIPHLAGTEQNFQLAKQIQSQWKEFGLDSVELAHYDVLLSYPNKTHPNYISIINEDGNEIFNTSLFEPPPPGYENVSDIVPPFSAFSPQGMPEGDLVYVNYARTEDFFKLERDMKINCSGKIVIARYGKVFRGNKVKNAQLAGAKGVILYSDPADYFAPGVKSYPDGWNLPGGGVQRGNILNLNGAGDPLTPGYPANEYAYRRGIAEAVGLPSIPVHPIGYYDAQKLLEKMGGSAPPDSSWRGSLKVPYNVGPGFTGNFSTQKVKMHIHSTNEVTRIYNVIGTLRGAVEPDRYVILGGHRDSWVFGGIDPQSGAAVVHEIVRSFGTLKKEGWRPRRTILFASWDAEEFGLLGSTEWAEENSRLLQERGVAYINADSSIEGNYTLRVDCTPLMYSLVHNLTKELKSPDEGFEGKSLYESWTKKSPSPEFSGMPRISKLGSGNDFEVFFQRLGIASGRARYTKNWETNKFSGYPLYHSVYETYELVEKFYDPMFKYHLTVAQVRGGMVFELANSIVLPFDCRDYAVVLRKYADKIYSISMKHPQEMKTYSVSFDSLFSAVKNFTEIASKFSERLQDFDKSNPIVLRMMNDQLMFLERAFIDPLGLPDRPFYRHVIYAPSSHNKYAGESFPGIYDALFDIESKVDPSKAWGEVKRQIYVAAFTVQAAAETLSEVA
Assay: Inhibition of glutamate carboxypeptidase 2 in human LNCAP cells assessed as glutamate formation using NAAG as substrate after 60 mins by fluorometric analysis
REPORTED PROPERTY: pKi
# reply with the number alone; pKi is -log10 of concentration in mol/L

Some compounds with known pKi results, for comparison:
C[C@H](NC(=O)N[C@@H](CCCCNC(=O)c1ccc(I)cc1)C(=O)O)C(=O)O : 6.49
CCC[C@H](NC(=O)N[C@@H](CCCCNC(=O)c1ccc(I)cc1)C(=O)O)C(=O)O : 6.84
CCCCCCC[C@H](NC(=O)N[C@@H](CCCCNC(=O)c1ccc(I)cc1)C(=O)O)C(=O)O : 7.54

Bench note, Glutamate carboxypeptidase 2 (Homo sapiens, UniProt Q04609): entry `CCCC[C@H](NC(=O)N[C@@H](CCCCNC(=O)c1ccc(I)cc1)C(=O)O)C(=O)O` , its pKi = 7.25

# `CCCCC[C@H](NC(=O)N[C@@H](CCCCNC(=O)c1ccc(I)cc1)C(=O)O)C(=O)O` with Glutamate carboxypeptidase 2 (Homo sapiens, UniProt Q04609): pKi is 7.70

The recorded pKi with Glutamate carboxypeptidase 2 (Homo sapiens, UniProt Q04609) for `O=C(O)CNC(=O)N[C@@H](CCCCNC(=O)c1ccc(I)cc1)C(=O)O` was 5.36

Recorded pKi for `CCCCCC[C@H](NC(=O)N[C@@H](CCCCNC(=O)c1ccc(I)cc1)C(=O)O)C(=O)O` on Glutamate carboxypeptidase 2 (Homo sapiens, UniProt Q04609) was 7.14

`CC[C@H](NC(=O)N[C@@H](CCCCNC(=O)c1ccc(I)cc1)C(=O)O)C(=O)O` on Glutamate carboxypeptidase 2 (Homo sapiens, UniProt Q04609) gives pKi = 6.92
